Assay: log P by HPLC on reversed-phase columns (C 18), method [a], acidic range pH 2.3
Format: physicochemical
Conditions: pH 2.3, log P (pH 2.3)
measured quantity: chromatographic logP

The compound listed as CCOC1CCC(=O)N1c1cccc(Nc2ncc(Cl)c(NC3CC3)n2)c1 (stereo not drawn) shows chromatographic logP equal to 1.65

The compound listed as COc1cc(N2CCCC2=O)cc([N+](=O)[O-])c1 shows chromatographic logP equal to 1.99

The compound listed as COCC(C)Nc1nc(Cl)ncc1C#N (stereo not drawn) shows chromatographic logP equal to 1.83

The compound listed as FC(F)(F)c1cc(Br)cc(Nc2ncc(Cl)c(NC3CC3)n2)c1 shows chromatographic logP equal to 4.6

The compound listed as O=C1CCCN1c1cc(Nc2ncc(C(F)(F)F)c(Cl)n2)ccc1F shows chromatographic logP equal to 2.84

The compound listed as O=C1OCCN1c1ccc(Nc2ncc(C(F)(F)F)c(Cl)n2)cc1 shows chromatographic logP equal to 2.74

---

Test: log P by LC-MS, method [b], acid range pH 2.7
Format: physicochemical
Settings: pH 2.7
Please respond with reported log p for every item in the list.

The molecule listed as CC1(C)CC1Nc1nc(Nc2cccc(N3CCCC3=O)c2)ncc1C(F)(F)F (stereo not drawn) shows log p equal to 3.04[b]

The molecule listed as C[C@H]1CCN(c2cccc(Nc3ncc(Cl)c(NC4CC4)n3)c2)C1=O shows log p equal to 2.86[b]

The molecule listed as O=C1CCCN1c1cccc(Nc2ncc(Cl)c(N3CCOCC3)n2)c1 shows log p equal to 1.98[b]

---

Experiment: log P by HPLC on reversed-phase columns (C 18), method [a], acidic range pH 2.3
Assay type: physicochemical
Details: pH 2.3
measured quantity: log p

The molecule listed as CC(C)CC1COC(=O)N1c1cccc(Nc2ncc(Br)c(NC3CC3)n2)c1 (centres unmarked) [Example 48] shows log p equal to 2.69[a]

The molecule listed as O=C1CCCCCN1c1cccc(Nc2ncc(Cl)c(NC3CC3)n2)c1 [Example 55] shows log p equal to 1.7[a]

The molecule listed as CC1CCN(Cc2cccc(Nc3ncc(Cl)c(N(C)C4CC4)n3)c2)C1=O (centres unmarked) [Example 233] shows log p equal to 2.5[a];

The molecule listed as CC1COC(=O)N1c1cccc(Nc2ncc(Cl)c(NC3CCC3)n2)c1 (centres unmarked) [Example 57] shows log p equal to 1.81[a]

The molecule listed as CC1COC(=O)N1c1cccc(Nc2ncc(Cl)c(NC3CC3(C)C)n2)c1 (centres unmarked) [Example 120] shows log p equal to 2.15[a];

The molecule listed as CCC(C)Nc1nc(Nc2cccc(N3CCCC3=O)c2)ncc1Cl (centres unmarked) [Example 8] shows log p equal to 1.84[a];

The molecule listed as CNc1nc(Nc2ccc(N3CCOC3=O)cc2)ncc1Cl [Example 61] shows log p equal to 0.73[a];

The molecule listed as COC1=CC(=O)N(c2cccc(Nc3ncc(Cl)c(NC4CC4)n3)c2)C1 [Example 237] shows log p equal to 1.55[a];

The molecule listed as CC(C)CC1COC(=O)N1c1cccc(Nc2ncc(Cl)c(NC3CC3)n2)c1 (centres unmarked) [Example 47] shows log p equal to 2.54[a]

The molecule listed as C=CCNc1nc(Nc2ccc(N3CCCC3=O)cc2)ncc1Cl [Example 13] shows log p equal to 1.38[a];

The molecule listed as CC1CCN(c2cccc(Nc3ncc(Cl)c(NC4CC4)n3)c2)C1=O (centres unmarked) [Example 26] shows log p equal to 1.76[a]

---

Please respond with reported chromatographic logP for every item in the list.
Assay: log P by HPLC on reversed-phase columns (C 18), method [a], acidic range pH 2.3
Format: physicochemical
Details: pH 2.3, log P (pH 2.3)
Just the number, please.

The compound listed as COc1cc(NC(=O)CCCCl)cc([N+](=O)[O-])c1 shows chromatographic logP equal to 2.46

The compound listed as O=CN(c1cccc(N2CCCC2=O)c1)c1ncc(Cl)c(NC2CC2)n1 [Example 217] shows chromatographic logP equal to 1.22

The compound listed as CCC1CCC(=O)N1c1cccc(N)c1 (stereo not drawn) shows chromatographic logP equal to 0.94

---

Test: log P by LC-MS, method [b], acid range pH 2.7
Type: physicochemical
Details: pH 2.7
Please respond with reported log p for every item in the list.

The compound listed as CC1CC(Nc2nc(Nc3cccc(N4C(=O)C(C)CC4C)c3)ncc2Br)C1 (stereo not drawn) shows log p equal to 2.66[b]

The compound listed as COCC(C)Nc1nc(Nc2cccc(N3C(=O)CC(C)C3=O)c2)ncc1Br (stereo not drawn) shows log p equal to 1.68[b]

The compound listed as Cc1ccc(Nc2ncc(Cl)c(NC3CC3)n2)cc1N1CCCC1=O shows log p equal to 1.44[b]

The compound listed as O=C1OCC(c2ccccc2)N1c1cccc(Nc2ncc(Br)c(NC3CC3)n2)c1 (stereo not drawn) shows log p equal to 2.3[b]

The compound listed as CC1CC1N(C)c1nc(Nc2cccc(N3CCCC3=O)c2)ncc1Cl (stereo not drawn) shows log p equal to 2.66[b]

The compound listed as C[C@@H]1CCN(c2cccc(Nc3ncc(Cl)c(NC4CC4)n3)c2)C1=O shows log p equal to 2.86[b]

The compound listed as CC1CC(C)N(c2cccc(Nc3ncc(Br)c(NC4CCC4)n3)c2)C1=O (stereo not drawn) shows log p equal to 2.3[b]

The compound listed as CCC1CCC(=O)N1c1cccc(Nc2ncc(Cl)c(NC3CC3)n2)c1 (stereo not drawn) shows log p equal to 1.87[b]

The compound listed as CC(C)Nc1nc(Nc2ccc(N3C(=O)OCC3C)cc2)ncc1Br (stereo not drawn) shows log p equal to 1.68[b]

The compound listed as CC1CC(=O)N(c2cccc(Nc3ncc(C(F)(F)F)c(NC4CC4)n3)c2)C1 (stereo not drawn) shows log p equal to 2.65[b]

The compound listed as COCC(C)Nc1nc(Nc2cccc(N3C(=O)CCC3=O)c2)ncc1Cl (stereo not drawn) shows log p equal to 1.26[b];

The compound listed as CC1CCN(c2cccc(Nc3ncc(C(F)(F)F)c(NC4CCC4)n3)c2)C1=O (stereo not drawn) shows log p equal to 3.16[b]

The compound listed as CC1CC1Nc1nc(Nc2cccc(N3C(=O)OCC3C)c2)ncc1Br (stereo not drawn) shows log p equal to 1.83[b]

The compound listed as O=C1CCCN1c1cccc(Nc2ncc(C(F)(F)F)c(NCCF)n2)c1 shows log p equal to 2.05[b]

The compound listed as O=C1CCC(C(F)(F)F)N1c1cccc(Nc2ncc(Cl)c(NC3CC3)n2)c1 (stereo not drawn) shows log p equal to 1.89[b]

---

Assay: log P by LC-MS, method [b], acid range pH 2.7
Format: physicochemical
Conditions: pH 2.7
Please respond with reported log p for every item in the list.

The compound listed as COCC(C)Nc1nc(Nc2cccc(N3CCOC3=O)c2)ncc1Br (centres unmarked) shows log p equal to 1.61[b]

The compound listed as COCC(C)Nc1nc(Nc2ccc(N3C(=O)OCC3C)cc2)ncc1Cl (centres unmarked) shows log p equal to 1.54[b]

The compound listed as CC(C)Nc1nc(Nc2cccc(N3C(=O)OCC3C)c2)ncc1Cl (centres unmarked) shows log p equal to 1.64[b]

The compound listed as CC1CC(=O)N(c2cccc(Nc3ncc(Cl)c(NC4CC4(C)C)n3)c2)C1=O (centres unmarked) shows log p equal to 2.13[b]

The compound listed as CC1(C)CC(=O)N(c2cccc(Nc3ncc(Cl)c(NCC(F)F)n3)c2)C1=O shows log p equal to 2.01[b]

The compound listed as CC(C)Nc1nc(Nc2cccc(N3C(=O)C(C)CC3C)c2)ncc1Br (centres unmarked) shows log p equal to 1.98[b]

The compound listed as CC1CC(Nc2nc(Nc3cccc(N4C(=O)CCC4=O)c3)ncc2Br)C1 (centres unmarked) shows log p equal to 1.86[b]

The compound listed as CC1COC(=O)N1c1cccc(Nc2ncc(Cl)c(N(C)C3CC3)n2)c1 (centres unmarked) shows log p equal to 2.29[b]

The compound listed as CCC1COC(=O)N1c1cccc(Nc2ncc(Br)c(NC3CCC3)n2)c1 (centres unmarked) shows log p equal to 2.24[b]

The compound listed as O=C1CCCN1c1cccc(Nc2ncc(Cl)c(N3CCCCC3)n2)c1 shows log p equal to 2.57[b]

The compound listed as CC1CC(=O)N(c2cccc(Nc3ncc(Cl)c(NCC4CC4)n3)c2)C1=O (centres unmarked) shows log p equal to 1.68[b]

The compound listed as CC(C)Nc1nc(Nc2ccc(N3C(=O)OCC3C)cc2)ncc1Cl (centres unmarked) shows log p equal to 1.61[b]

The compound listed as CC1CC(=O)N(c2cccc(Nc3ncc(Cl)c(N(C)C4CC4)n3)c2)C1=O (centres unmarked) shows log p equal to 2.21[b]

The compound listed as O=C1CCCN1c1cccc(Nc2ncc(C(F)(F)F)c(N3CCCC3)n2)c1 shows log p equal to 2.45[b]

The compound listed as CC(C)Nc1nc(Nc2cccc(N3CCCCC3=O)c2)ncc1Br shows log p equal to 1.57[b]

The compound listed as O=C1OCC(c2ccccc2)N1c1cccc(Nc2ncc(Cl)c(NC3CCC3)n2)c1 (centres unmarked) shows log p equal to 2.65[b]

The compound listed as CC(C)C1COC(=O)N1c1cccc(Nc2ncc(Br)c(NCC3CC3)n2)c1 (centres unmarked) shows log p equal to 2.28[b]
